# Test system: Human immunodeficiency virus 2
# procedure_summary: Antiviral activity against wild type HIV-2 ROD infected in human CEM cells assessed as inhibition of syncytia formation after 4 days by microscopic analysis
# Type: functional, organism-based
# experimental_setup: Human immunodeficiency virus 2, ISOLATE ROD, CCRF-CEM, 96 h
pEC50: −log10 of the molar value.
Form field: pEC50 (one value per entry).

query_smiles	relation_sign	pEC50
CC(C)OC(=O)OCOP(=S)(CO[C@H](C)Cn1cnc2c(N)ncnc21)OCOC(=O)OC(C)C	=	6.89
CC(C)(C)C(=O)OCOP(=S)(COCCn1cnc2c(N)ncnc21)OCOC(=O)C(C)(C)C	≤	6.70
CC(C)(C)C(=O)OCOP(=O)(COCCn1cnc2c(N)ncnc21)OCOC(=O)C(C)(C)C	=	7.21
CC(C)OC(=O)OCOP(=O)(CO[C@H](C)Cn1cnc2c(N)ncnc21)OCOC(=O)OC(C)C	=	7.89

====

# procedure_summary: Half life of the compound in presence of carboxyesterase
# Assay type: physicochemical
Form field: half-life (one value per entry).
quantity_kind: half-life

query_smiles	quantity_kind	result
CC(C)OC(=O)OCOP(=O)([O-])CO[C@H](C)Cn1cnc2c(N)ncnc21.[Na+]	half-life	> 7 h
CC(C)(C)C(=O)OCOP(=O)(COCCn1cnc2c(N)ncnc21)OCOC(=O)C(C)(C)C	half-life	> 7 h

====

# System: Vaccinia virus
# procedure_summary: Antiviral activity against Vaccinia virus infected in human HEL cells assessed as reduction of virus-induced cytopathicity measured at day 3 by microscopic analysis
# Type: functional, organism-based
# experimental_setup: Orthopoxvirus vaccinia, 72 h
Form field: EC50 (one value per entry).

compound	EC50
CC(C)OC(=O)OCOP(=S)(CO[C@H](C)Cn1cnc2c(N)ncnc21)OCOC(=O)OC(C)C	> 50 µM
Nc1nc2c(ncn2COCCO)c(=O)[nH]1 [ACYCLOVIR]	> 250 µM
CC(C)OC(=O)OCOP(=O)(CO[C@H](C)Cn1cnc2c(N)ncnc21)OCOC(=O)OC(C)C [TENOFOVIR DISOPROXIL]	> 50 µM
